Measured values drawn from ChEMBL document CHEMBL1137769 for this set.

Quick record: IC50, Cathepsin D (Homo sapiens, UniProt P07339).
Lab book: enter the figure in µM, no units written.

input: Consider the molecule CCc1c[nH]c2c(N3CCCC3=O)cc(C(=O)N[C@@H](Cc3ccccc3)[C@H](O)CNCc3cccc(C(F)(F)F)c3)cc12 and give its measured IC50.
output: 4.07

input: Next molecule up: CCn1nnc2c(N3CCCC3=O)cc(C(=O)N[C@@H](Cc3ccccc3)[C@H](O)CNCc3cccc(C(F)(F)F)c3)cc21
output: 11.2

input: Next molecule up: CCn1ncc2c(N3CCCC3=O)cc(C(=O)N[C@@H](Cc3ccccc3)[C@H](O)CNCc3cccc(C(F)(F)F)c3)cc21
output: 14.1

input: Next molecule up: CCn1ccc2c(N3CCCC3=O)cc(C(=O)N[C@@H](Cc3ccccc3)[C@H](O)CNCc3cccc(C(F)(F)F)c3)cc21
output: 13.5

input: Next molecule up: CCNc1cc(C(=O)N[C@@H](Cc2ccccc2)[C@H](O)CNCc2cccc(C(F)(F)F)c2)cc(N2CCCC2=O)c1C
output: 4.27

input: Next molecule up: CCn1c(=O)[nH]c2c(N3CCCC3=O)cc(C(=O)N[C@@H](Cc3ccccc3)[C@H](O)CNCc3cccc(OC)c3)cc21
output: 24

input: Next molecule up: CCNc1cc(C(=O)N[C@@H](Cc2ccccc2)[C@H](O)CNCc2cncc(C#N)c2)cc(N2CCCCS2(=O)=O)c1
output: 35.5

input: Next molecule up: CCNc1cc(C(=O)N[C@@H](Cc2ccccc2)[C@H](O)CNCc2cccc(C(F)(F)F)c2)cc(N2CCCCS2(=O)=O)c1OC
output: 0.6

input: Next molecule up: CCNc1cc(C(=O)N[C@@H](Cc2ccccc2)[C@H](O)CNCc2cccc(C(F)(F)F)c2)cc(N2CCCC2=O)c1
output: 6.58

input: Next molecule up: CCNc1cc(C(=O)N[C@@H](Cc2ccccc2)[C@H](O)CNC(C)(C)c2cccc(C(F)(F)F)c2)cc(N2CCCCS2(=O)=O)c1
output: 0.6

###

- assay.comment: Half life in rat at 3 mg/kg, po
- Format: ADME, organism-based
- Set-up: dose 3 mg/kg, route oral
- measurement.setup: in vivo
property.label: half-life (h)
Lab book: enter the figure in h, no units written.

input: Consider the molecule CCNc1cc(C(=O)N[C@@H](Cc2ccccc2)[C@H](O)CNCc2cccc(C(F)(F)F)c2)c(F)c(N2CCCC2=O)c1 and give its measured half-life.
output: 1.8

###

- experimental.system: Beta-secretase 1 (Homo sapiens)
- Sequence (P56817 whole entry): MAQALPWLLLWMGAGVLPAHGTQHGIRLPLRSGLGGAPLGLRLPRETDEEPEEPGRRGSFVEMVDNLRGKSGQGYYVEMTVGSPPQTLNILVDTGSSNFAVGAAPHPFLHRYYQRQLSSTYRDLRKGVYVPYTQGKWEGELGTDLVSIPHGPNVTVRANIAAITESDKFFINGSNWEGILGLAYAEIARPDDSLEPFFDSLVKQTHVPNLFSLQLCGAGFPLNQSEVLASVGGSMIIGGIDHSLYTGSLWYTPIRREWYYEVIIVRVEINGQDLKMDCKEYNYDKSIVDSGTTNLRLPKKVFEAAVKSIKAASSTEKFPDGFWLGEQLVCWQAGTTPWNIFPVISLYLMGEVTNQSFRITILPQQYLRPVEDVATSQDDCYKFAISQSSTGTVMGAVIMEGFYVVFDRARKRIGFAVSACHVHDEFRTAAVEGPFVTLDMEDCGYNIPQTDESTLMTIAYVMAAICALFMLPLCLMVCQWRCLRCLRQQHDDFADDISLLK
- assay.comment: Inhibition of BACE in human SHSY5Y cells expressing swedish-mutant APP assessed as inhibition of intracellular amyloid beta-40
- Assay type: cell-based, SH-SY5Y
Can you tell me IC50 for the items I'm about to list?
Lab book: enter the figure in nM, no units written.

input: Consider the molecule CCNc1cc(C(=O)N[C@@H](Cc2ccccc2)[C@H](O)CNCc2cccc(C(F)(F)F)c2)c(F)c(N2CCCCS2(=O)=O)c1 and give its measured IC50.
output: 30

input: Next molecule up: CCNc1cc(C(=O)N[C@@H](Cc2ccccc2)[C@H](O)CNCc2cccc(C(F)(F)F)c2)c(F)c(N2CCCC2=O)c1
output: 519

###

- experimental.system: Beta-secretase 2 (Homo sapiens, UniProt Q9Y5Z0)
- Sequence (Q9Y5Z0 whole entry): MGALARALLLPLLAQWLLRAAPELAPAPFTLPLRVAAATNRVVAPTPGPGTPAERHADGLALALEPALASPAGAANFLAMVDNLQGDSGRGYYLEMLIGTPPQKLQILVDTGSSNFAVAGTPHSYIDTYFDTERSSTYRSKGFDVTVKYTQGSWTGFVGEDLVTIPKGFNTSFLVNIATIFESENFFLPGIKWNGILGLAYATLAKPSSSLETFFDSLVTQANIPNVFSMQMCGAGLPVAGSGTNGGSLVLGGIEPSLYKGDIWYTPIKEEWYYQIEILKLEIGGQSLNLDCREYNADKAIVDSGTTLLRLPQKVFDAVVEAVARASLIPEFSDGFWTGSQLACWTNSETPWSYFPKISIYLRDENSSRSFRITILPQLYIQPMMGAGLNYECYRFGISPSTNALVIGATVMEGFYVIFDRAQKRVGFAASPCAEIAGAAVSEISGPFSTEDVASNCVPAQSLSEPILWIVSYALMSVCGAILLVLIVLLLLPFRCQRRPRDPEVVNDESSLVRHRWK
pIC50: −log10 of the molar value.
Is pIC50 at least 5? Then Criterion met. If not, Criterion not met.

input: Decide: is the reported value of pIC50 for CCn1ncc2c(N3CCCC3=O)cc(C(=O)N[C@@H](Cc3ccccc3)[C@H](O)CNCc3cccc(C(F)(F)F)c3)cc21 equal to or greater than 5?
output: Criterion met

input: Next compound up: CCNc1cc(C(=O)N[C@@H](Cc2ccccc2)[C@H](O)CNCc2cccc(C(F)(F)F)c2)cc(N2CCCCS2(=O)=O)c1OC
output: Criterion met

input: Next compound up: CCNc1cc(C(=O)N[C@@H](Cc2ccccc2)[C@H](O)CNCc2cccc(C(F)(F)F)c2)cc(N2CCCC2=O)c1
output: Criterion met

input: Next compound up: CCn1c(=O)[nH]c2c(N3CCCC3=O)cc(C(=O)N[C@@H](Cc3ccccc3)[C@H](O)CNCc3cccc(OC)c3)cc21
output: Criterion not met

input: Next compound up: CCc1c[nH]c2c(N3CCCC3=O)cc(C(=O)N[C@@H](Cc3ccccc3)[C@H](O)CNCc3cccc(C(F)(F)F)c3)cc12
output: Criterion met
